A collection of molecules and their measured EC50
- System: Pseudotyped HCV GT1b particles (HCVpp), entry into Huh7-high CD81 cells
- assay_explanation: microbe, parasite or virus in culture
- Type: cell-based, HCV GT1b Con1 strain
- assay_setup: Hepatitis C virus, GT1B, 72 h, read-out: HCVpp GT-1b (EC50, μM)
Structures can show the parent of a compound that is named as a salt.
Quick reminder: number only, in µM, skip the unit.

Qu. Which EC50 value is on record for Nc1nc(Nc2cc(Cl)c(-c3ccc(N4CCCS4(=O)=O)cc3)c(Cl)c2)n[nH]1 ?
Ans. 0.046

Qu. Returns the measured EC50 for the input molecule. Input: Nc1nc(Nc2cc(Cl)c(-c3ccc(S(=O)(=O)C4CCCN(CCC(F)(F)F)C4)cc3)c(C(F)(F)F)c2)n[nH]1 (stereo not shown) [Compound 11, hydrochloride]
Ans. 0.017

Qu. Query (molecule): Nc1nc(Nc2cc(Cl)c(-c3ccc(OC[C@@H]4CCCN4)cc3)c(C(F)(F)F)c2)n[nH]1 ; field requested: EC50
Ans. 0.117

Qu. Value lookup for EC50; key = Nc1nc(Nc2cc(Cl)c(-c3ccc(C(F)(F)F)cc3)c(Cl)c2)n[nH]1
Ans. 1.57

----------
- Tested on: Pseudotyped HCV GT1b particles (HCVpp), entry into Huh7-high CD81 cells
- assay_explanation: microbe, parasite or virus in culture
- Format: cell-based, HCV GT1b Con1 strain
- assay_setup: Hepatitis C virus, GT1B, 72 h, read-out: HCVpp GT-1b (EC50, μM)
Structures can show the parent of a compound that is named as a salt.
assay_endpoint: EC50
// return the numeric value with its unit appended

Solved cases (3 shown):
[[record]]
molecule = "Nc1nc(Nc2cc(Cl)c(-c3ccc(S(=O)(=O)C[C@@H]4CCCN4)cc3)c(C(F)(F)F)c2)n[nH]1 [Compound 35, hydrochloride]"
reported_value = "0.127 µM"

[[record]]
molecule = "CS(=O)(=O)c1cccc(-c2c(F)cc(Nc3nc(N)n[nH]3)cc2C(F)(F)F)c1"
reported_value = "0.169 µM"

[[record]]
molecule = "CC(C)(C)OC(=O)N1CCC(S(=O)(=O)c2ccc(-c3c(Cl)cc(Nc4n[nH]c(N)n4)cc3C(F)(F)F)cc2)CC1"
reported_value = "0.001 µM"


Qu. Sample Nc1nc(Nc2cc(Cl)c(-c3ccc4c(c3)NC(=O)C4)c(Cl)c2)n[nH]1 — what was its EC50?
Ans. 0.594 µM

Qu. So what does the record say about EC50 for CS(=O)(=O)Nc1ccc(-c2c(F)cc(Nc3nc(N)n[nH]3)cc2C(F)(F)F)cc1 ?
Ans. 0.113 µM

Qu. Please look up its EC50: Nc1nc(Nc2ccc(-c3ccc(F)c(F)c3)c(Cl)c2)n[nH]1
Ans. 6.12 µM

Qu. // lookup EC50 for CC(C)(C)CCN1CCCC(CS(=O)(=O)c2ccc(-c3c(Cl)cc(Nc4n[nH]c(N)n4)cc3C(F)(F)F)cc2)C1 (stereo not shown) [Compound 56, hydrochloride]
Ans. 0.046 µM

----------
- Test system: Pseudotyped HCV GT1a particles (HCVpp), entry into Huh7-high CD81 cells
- assay_explanation: microbe, parasite or virus in culture
- Format: cell-based, HCV GT1a H77 strain
- assay_setup: Hepatitis C virus, 72 h, read-out: HCVpp GT-1a (EC50, μM)
Form field: EC50 (one value per entry).
Note: unit µM is implicit; provide only the numeric part.

[[record]]
smiles_string = "Cc1ccc(-c2c(Cl)cc(Nc3n[nH]c(N)n3)cc2Cl)cc1"
reading_unit = "µM"
reported_value = 0.007

[[record]]
smiles_string = "CN(C)C(=O)c1cccc(-c2c(Cl)cc(Nc3n[nH]c(N)n3)cc2Cl)c1"
reading_unit = "µM"
reported_value = 0.007


Qu. What value of EC50 has been recorded for this entry: Nc1nc(Nc2cc(Cl)c(-c3ccc(S(=O)(=O)N[C@H]4C[C@H](O)C4)cc3)c(C(F)(F)F)c2)n[nH]1
Ans. 0.007

----------
- Tested on: Pseudotyped HCV GT1b particles (HCVpp), entry into Huh7-high CD81 cells
- assay_explanation: microbe, parasite or virus in culture
- Type: cell-based, HCV GT1b Con1 strain
- assay_setup: Hepatitis C virus, GT1B, 72 h, read-out: HCVpp GT-1b (EC50, μM)
Entries and their EC50 values follow.

The cases that follow already have their EC50 on record.
[[record]]
molecule = "Nc1nc(Nc2cc(Cl)c(-c3ccc(C(=O)NCCO)c(F)c3)c(C(F)(F)F)c2)n[nH]1 [Compound 293]"
subject_of_test = "Pseudotyped HCV GT1b particles (HCVpp), entry into Huh7-high CD81 cells"
reported_value = "0.139 µM"

[[record]]
molecule = "Nc1nc(Nc2ccc(-c3ccccc3F)c(C(F)(F)F)c2)n[nH]1 [Compound 150]"
subject_of_test = "Pseudotyped HCV GT1b particles (HCVpp), entry into Huh7-high CD81 cells"
reported_value = "0.866 µM"

[[record]]
molecule = "Nc1nc(Nc2cc(Cl)c(-c3ccc(S(=O)(=O)NC4CC(O)C4)cc3)c(C(F)(F)F)c2)n[nH]1 (stereo not shown) [Compound 172]"
subject_of_test = "Pseudotyped HCV GT1b particles (HCVpp), entry into Huh7-high CD81 cells"
reported_value = "0.032 µM"

[[record]]
molecule = "CC(C)(C)OC(=O)N1CCC(Oc2ccc(-c3c(Cl)cc(Nc4n[nH]c(N)n4)cc3Cl)cc2)CC1 [Compound 268]"
subject_of_test = "Pseudotyped HCV GT1b particles (HCVpp), entry into Huh7-high CD81 cells"
reported_value = "0.17 µM"

[[record]]
molecule = "CC(C)CS(=O)(=O)c1ccc(-c2c(Cl)cc(Nc3n[nH]c(N)n3)cc2C(F)(F)F)cc1 [Compound 65]"
subject_of_test = "Pseudotyped HCV GT1b particles (HCVpp), entry into Huh7-high CD81 cells"
reported_value = "0.026 µM"


Alright, here's another molecule for you.
Qu. Fill in: EC50 of Nc1n[nH]c(Nc2cc(F)c(-c3ccc(S(=O)(=O)N4CCOCC4)cc3)c(F)c2)n1 [Compound 77] is ___
Ans. 0.19 µM

----------
- Tested on: Pseudotyped HCV GT1b particles (HCVpp), entry into Huh7-high CD81 cells
- assay_explanation: microbe, parasite or virus in culture
- Assay type: cell-based, HCV GT1b Con1 strain
- assay_setup: Hepatitis C virus, GT1B, 72 h, read-out: HCVpp GT-1b (EC50, μM)
Structures can show the parent of a compound that is named as a salt.
Recorded EC50 split into classes low: < 0.09 µM; mid: ≥ 0.09 µM and < 0.2 µM; high: ≥ 0.2 µM

[[record]]
molecule = "CC(C)(C)CCNCCOc1ccc(-c2c(Cl)cc(Nc3n[nH]c(N)n3)cc2C(F)(F)F)cc1 [Compound 136, hydrochloride]"
discrete_label = "low"


Qu. Kindly identify the class of Cc1ccc(-c2c(F)cc(Nc3nc(N)n[nH]3)cc2C(F)(F)F)cc1 .
Ans. high

Qu. Band assignment needed for CN(C(C)(C)C)S(=O)(=O)c1cccc(-c2c(Cl)cc(Nc3n[nH]c(N)n3)cc2C(F)(F)F)c1 please.
Ans. mid

Qu. Given CS(=O)(=O)Cc1ccc(-c2c(Cl)cc(Nc3n[nH]c(N)n3)cc2Cl)cc1 , name the class its EC50 places it in.
Ans. low

Qu. Assign a category based on measured EC50 for CC(C)S(=O)(=O)c1ccc(-c2c(Cl)cc(Nc3n[nH]c(N)n3)cc2C(F)(F)F)cc1 and give only the class name.
Ans. low

Qu. Tag the class for Nc1nc(Nc2cc(Cl)c(-c3ccc(N4CCCC4=O)cc3)c(Cl)c2)n[nH]1
Ans. mid

Qu. Record CC(C)(C)CCN1CCCC(Oc2ccc(-c3c(Cl)cc(Nc4n[nH]c(N)n4)cc3C(F)(F)F)cc2)C1 (stereo not shown) [Compound 131, hydrochloride] — which class?
Ans. mid

Qu. Band assignment needed for CC(C)(C)OC(=O)c1ccc(-c2c(Cl)cc(Nc3n[nH]c(N)n3)cc2C(F)(F)F)cc1 please.
Ans. high

Qu. Any idea which band CC(C)(C)OC(=O)N1CCC[C@@H]1COc1ccc(-c2c(Cl)cc(Nc3n[nH]c(N)n3)cc2C(F)(F)F)cc1 is in?
Ans. low

Qu. GET /class?item= CC(C)(C)NCc1ccc(-c2c(Cl)cc(Nc3n[nH]c(N)n3)cc2C(F)(F)F)cc1 [Compound 58, hydrochloride]
Ans. low

Qu. Which of the defined bands does the recorded EC50 of CN(C)C(=O)c1cccc(-c2c(Cl)cc(Nc3n[nH]c(N)n3)cc2Cl)c1 sit within?
Ans. mid

Qu. In plain terms, what class is CS(=O)(=O)Nc1cccc(-c2c(F)cc(Nc3nc(N)n[nH]3)cc2C(F)(F)F)c1 ?
Ans. high

Qu. Entry CC1(O)CN(S(=O)(=O)c2ccc(-c3c(Cl)cc(Nc4n[nH]c(N)n4)cc3C(F)(F)F)cc2)C1 belongs to which category?
Ans. low

Qu. Bin this entry: Nc1nc(Nc2cc(Cl)c(-c3ccc4[nH]c(=O)[nH]c4c3)c(Cl)c2)n[nH]1
Ans. high

Qu. In plain terms, what class is CC1(O)CCN(S(=O)(=O)c2ccc(-c3c(Cl)cc(Nc4n[nH]c(N)n4)cc3C(F)(F)F)cc2)C1 (stereo not shown) ?
Ans. low

Qu. Class label required: CNS(=O)(=O)c1cccc(-c2c(F)cc(Nc3nc(N)n[nH]3)cc2C(F)(F)F)c1
Ans. high
